Test system: MT4 cells
Assay: Cytotoxicity (CC50) in MT4 cells, mock-infected
Assay type: cell-based
Conditions: 5 days
Method: Infected and uninfected cells are diluted in cell growth medium and 35 μL of 2000 (for MT4) cells is added to each well of the assay plates. Assay plates were then incubated in a 37° C. incubator. […] Cell lysis was carried out by incubating at room temperature for 2-3 minutes, and then chemiluminescence was read using the Envision reader (PerkinElmer).
Property: CC50

Endpoint output: CC50 of CN1C(=O)c2c(O)c(=O)c(C(=O)NCc3c(F)cc(F)cc3F)cn2[C@@H]2CCCC[C@@H]21 [Compound 4] . Value?
10.5 µM

Now the molecule O=C(NCc1c(F)cc(F)cc1F)c1cn2c(c(O)c1=O)C(=O)N(CC(F)(F)F)[C@@H]1COCC[C@@H]12 [Compound 32]
57.1 µM

* * *

Listing of entries alongside the reported Resistance fold shift E92Q/N155H vs. wild type.
System: HIV-1 E92Q/N155H
Assay type: cell-based
Details: MT2 cells; mean EC50 mutant / mean EC50 wt
Numbers only; they are read as fold shift.

Endpoint output: Resistance fold shift E92Q/N155H vs. wild type of CCN1C(=O)c2c(O)c(=O)c(C(=O)NCc3ccc(F)cc3F)cn2[C@H]2CCOC[C@H]21 . Value?
2.1

Now the molecule CCN1C(=O)c2c(O)c(=O)c(C(=O)NCc3c(F)cc(F)cc3F)cn2[C@H]2CCOC[C@H]21
0.9

Now the molecule CCN1C(=O)c2c(O)c(=O)c(C(=O)NCc3c(F)cc(F)cc3F)cn2[C@H]2COC[C@H]21
2.3

Now the molecule C[C@@H]1CCO[C@H]2Cn3cc(C(=O)NCc4ccc(F)cc4F)c(=O)c(O)c3C(=O)N12 [Dolutegravir, reference compound]
1.9

Now the molecule CCN1C(=O)c2c(O)c(=O)c(C(=O)NCc3ccc(F)c(Cl)c3F)cn2[C@H]2CCOC[C@H]21
2.3

Now the molecule CCN1C(=O)c2c(O)c(=O)c(C(=O)NCc3ccc(F)c(Cl)c3F)cn2[C@H]2CCO[C@H]21 [Compound 25b]
2.2

* * *

System: HIV-IIIb
Assay: Antiviral assay in MT4 cells
Format: cell-based
Details: Human immunodeficiency virus 1, IIIB, MT4, 120 h
Property: EC50 (nM)
Numbers only; they are read as nM.

Endpoint output: EC50 of CN1C(=O)c2c(O)c(=O)c(C(=O)NCc3c(F)cc(F)cc3F)cn2[C@H]2COCC[C@]21C(F)F . Value?
1.4

* * *

Target: PXR (NR1I2) (Homo sapiens (Human), UniProt O75469)
Sequence (O75469 whole entry): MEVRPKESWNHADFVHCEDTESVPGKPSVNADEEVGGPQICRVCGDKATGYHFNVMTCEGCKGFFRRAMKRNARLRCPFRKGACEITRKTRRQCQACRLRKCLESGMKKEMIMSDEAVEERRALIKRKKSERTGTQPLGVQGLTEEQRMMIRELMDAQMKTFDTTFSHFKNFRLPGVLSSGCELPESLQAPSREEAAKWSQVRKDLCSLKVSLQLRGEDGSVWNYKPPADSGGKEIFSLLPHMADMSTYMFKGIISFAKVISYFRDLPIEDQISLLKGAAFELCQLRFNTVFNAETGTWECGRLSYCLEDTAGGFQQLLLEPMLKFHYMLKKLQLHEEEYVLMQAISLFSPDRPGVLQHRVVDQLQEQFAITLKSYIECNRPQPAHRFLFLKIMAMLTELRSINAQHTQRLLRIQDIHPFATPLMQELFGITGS
Test: Human PXR activation assay (luciferase reporter, DPX2 cells)
Format: cell-based
Settings: human
Listing of entries alongside the reported inhibition at 24 h, 15 µM.
Numbers only; they are read as %.

Solved entries (count: 5):
- CCN1C(=O)c2c(O)c(=O)c(C(=O)NCc3c(F)cc(F)cc3F)cn2[C@H]2CCC3(C[C@H]21)OCCO3 [Compound 40b]: 22
- CN1C(=O)c2c(O)c(=O)c(C(=O)NCc3c(F)cc(F)cc3F)cn2[C@H]2CCCC[C@@H]21: 46
- CCN1C(=O)c2c(O)c(=O)c(C(=O)NCc3c(F)cc(F)cc3F)cn2[C@H]2CCC(=O)C[C@H]21 [Compound 40a]: 4
- O=C(NCc1c(F)cc(F)cc1F)c1cn2c(c(O)c1=O)C(=O)N[C@H]1CCCC[C@@H]12: 0
- O=C(NCc1c(F)cc(F)cc1F)c1cn2c(c(O)c1=O)C(=O)N[C@@H]1CCCC[C@H]12: 0

Please turn your attention to the following entry.
Endpoint output: inhibition at 24 h, 15 µM of CN1C(=O)c2c(O)c(=O)c(C(=O)NCc3c(F)cc(F)cc3F)cn2[C@@H]2CCCC[C@H]21 . Value?
32
